- Test protocol: Pharmacokinetics in human subjects after 28 days of intranasal administration (Example 7)
- Type: in vivo
- Assay context: human, plasma, other: intranasal spray, […] Compound 1, 50 μL spray in each nostril, Mean, N=7; Day 29 dose after 28 days BID
Endpoint name: AUC(0-inf) (ng·h/mL)

[
  {
    "Smiles string": "C(=C\\[C@H]1CCNC1)/c1cncnc1",
    "Unit label": "ng·h/mL",
    "Result": 6.22
  }
]

====

- Test protocol: Pharmacokinetics in human subjects after 28 days of intranasal administration (Example 7)
- Type: in vivo
- Assay context: human, plasma, other: intranasal spray, […] Compound 1, 50 μL spray in each nostril, Max (individual subject maximum), N=7; Day 29 dose after 28 days BID; read-out: Cmax

[
  {
    "Smiles string": "C(=C\\[C@H]1CCNC1)/c1cncnc1",
    "Unit label": "ng/mL",
    "Cmax": 5.49
  }
]
